# target or system: Casein kinase I isoform epsilon (Homo sapiens); also: in the data inactive means no Kd found up to 30 µM
# Sequence (P49674 whole entry, canonical isoform): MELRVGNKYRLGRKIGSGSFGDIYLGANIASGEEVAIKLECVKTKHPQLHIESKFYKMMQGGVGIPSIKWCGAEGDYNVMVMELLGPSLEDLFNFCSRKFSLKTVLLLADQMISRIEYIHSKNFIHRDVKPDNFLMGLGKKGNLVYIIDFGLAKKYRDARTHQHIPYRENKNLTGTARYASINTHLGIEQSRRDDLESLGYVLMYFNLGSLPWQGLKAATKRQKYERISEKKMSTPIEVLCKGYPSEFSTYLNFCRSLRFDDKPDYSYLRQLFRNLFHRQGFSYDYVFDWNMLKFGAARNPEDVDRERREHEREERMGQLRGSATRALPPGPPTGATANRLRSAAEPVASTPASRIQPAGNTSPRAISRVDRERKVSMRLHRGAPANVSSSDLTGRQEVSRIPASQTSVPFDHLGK
Active and inactive are the calls of the source.
Thanks in advance; please answer with one of these: y (active), n (inactive)

Exercise: // return assay outcome for O=c1[nH]ccc2cc(OC3CCNCC3)ccc12 [SAR-407899 FREE BASE]
Solution: n

Exercise: Could you check what this test reported for NC(=O)Nc1cc(-c2cccc(F)c2)sc1C(=O)N[C@H]1CCCNC1 ?
Solution: n

More entries:
Exercise: Which outcome was entered for the compound Cc1cc(Nc2ncnc3ccc(NC4=NC(C)(C)CO4)cc23)ccc1Oc1ccn2ncnc2c1 in this test?
Solution: n

Exercise: Hello, I am checking results. What call was entered for O=C1NC(=O)[C@@H](c2cn3c4c(cccc24)CCC3)[C@@H]1c1c[nH]c2ccccc12 [TIVANTINIB] ?
Solution: n

Exercise: Dear all, I need the recorded test outcome for C#Cc1cccc(Nc2ncnc3cc(OC)c(OCCCCCCC(=O)NO)cc23)c1 , thank you.
Solution: n

Exercise: Any idea what this test logged for CO[C@H]1C[C@@H]2CC[C@@H](C)[C@@](O)(O2)C(=O)C(=O)N2CCCC[C@H]2C(=O)O[C@H]([C@H](C)C[C@@H]2CC[C@@H](O)[C@H](OC)C2)CC(=O)[C@H](C)/C=C(\C)[C@@H](O)[C@@H](OC)C(=O)[C@H](C)C[C@H](C)/C=C/C=C/C=C/1C ?
Solution: n

Exercise: What did this assay record as the result for Nc1ncnc2c1c(-c1cccc(OCc3ccccc3)c1)cn2[C@H]1C[C@@H](CN2CCC2)C1 ?
Solution: y

Exercise: Per the assay record, what outcome was assigned to CNC(=O)c1cccc2cc(Oc3ccnc4cc(OCC5(N)CC5)c(OC)cc34)ccc12 ?
Solution: n

* * *

# target or system: UniProt Q8N4C8
# Sequence (Q8N4C8 whole entry): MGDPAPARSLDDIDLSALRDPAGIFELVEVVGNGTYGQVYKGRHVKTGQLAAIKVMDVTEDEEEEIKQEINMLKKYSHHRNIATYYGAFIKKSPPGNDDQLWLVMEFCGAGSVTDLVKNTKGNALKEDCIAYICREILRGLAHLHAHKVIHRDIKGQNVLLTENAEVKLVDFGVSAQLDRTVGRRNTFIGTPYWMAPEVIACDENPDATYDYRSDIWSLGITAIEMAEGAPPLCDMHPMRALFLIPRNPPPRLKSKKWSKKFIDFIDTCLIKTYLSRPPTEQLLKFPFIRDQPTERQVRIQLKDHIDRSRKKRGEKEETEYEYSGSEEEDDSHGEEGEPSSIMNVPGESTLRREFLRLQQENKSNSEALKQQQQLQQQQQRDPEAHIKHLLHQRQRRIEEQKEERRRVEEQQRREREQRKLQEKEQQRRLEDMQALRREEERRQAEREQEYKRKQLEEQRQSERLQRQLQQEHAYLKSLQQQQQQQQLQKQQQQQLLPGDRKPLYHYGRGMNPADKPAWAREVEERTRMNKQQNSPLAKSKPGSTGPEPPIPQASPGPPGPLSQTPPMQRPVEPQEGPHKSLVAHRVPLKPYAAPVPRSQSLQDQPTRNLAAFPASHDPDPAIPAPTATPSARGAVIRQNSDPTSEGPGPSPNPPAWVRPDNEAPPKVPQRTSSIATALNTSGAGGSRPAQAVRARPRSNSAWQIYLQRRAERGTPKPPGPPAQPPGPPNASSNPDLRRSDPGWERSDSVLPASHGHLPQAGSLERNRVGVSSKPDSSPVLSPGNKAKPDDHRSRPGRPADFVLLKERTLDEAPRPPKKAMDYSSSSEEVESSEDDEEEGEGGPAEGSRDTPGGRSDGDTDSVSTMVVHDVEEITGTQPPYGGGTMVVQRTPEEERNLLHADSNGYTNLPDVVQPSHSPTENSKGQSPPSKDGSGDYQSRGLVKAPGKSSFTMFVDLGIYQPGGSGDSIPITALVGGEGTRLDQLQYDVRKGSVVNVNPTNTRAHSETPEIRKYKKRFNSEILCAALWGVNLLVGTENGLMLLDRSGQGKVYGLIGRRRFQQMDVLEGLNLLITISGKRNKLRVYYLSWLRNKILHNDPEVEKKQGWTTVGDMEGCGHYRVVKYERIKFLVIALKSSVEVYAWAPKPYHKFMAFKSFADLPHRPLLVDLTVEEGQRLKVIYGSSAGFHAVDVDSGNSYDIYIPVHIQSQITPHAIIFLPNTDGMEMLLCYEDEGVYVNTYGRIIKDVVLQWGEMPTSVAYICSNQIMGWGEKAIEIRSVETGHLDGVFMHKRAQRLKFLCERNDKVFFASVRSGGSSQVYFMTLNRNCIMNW
Where a name gives a salt, the structure may show the parent alone. The source made the active and inactive calls.
Thanks in advance; please answer with one of these: YES = active, NO = inactive

Past entries and their recorded results:
Exercise: Short answer needed: outcome of this test for O=C(Nc1nc2cccc(-c3ccc(CN4CCS(=O)(=O)CC4)cc3)n2n1)C1CC1 ?
Solution: NO

Exercise: Recorded test outcome, item C#Cc1cccc(Nc2ncnc3cc(OC)c(OCCCCCCC(=O)NO)cc23)c1
Solution: NO

Exercise: How was FC(F)(F)c1ccc(/C=C/c2nc(COc3ccc(CCCCn4ccnn4)cc3)co2)cc1 classified in this test?
Solution: YES

Others:
Exercise: GET /call?item= NC1(c2ccc(-c3nc4ccn5c(=O)[nH]nc5c4cc3-c3ccccc3)cc2)CCC1 returns the recorded outcome of this test.
Solution: NO

Exercise: Hi team, can someone confirm the assay call for O=C(Nc1cc(C(F)(F)F)cc(C(F)(F)F)c1)c1cc(Cl)ccc1O ?
Solution: NO

Exercise: What outcome does the record of this test show for COc1cc2c(Nc3ccc(Cl)c(Cl)c3F)ncnc2cc1OC[C@@H]1C[C@@H]2CN(C)C[C@@H]2C1 ?
Solution: NO

Exercise: Returns: the outcome recorded for COc1ncc(-c2ccc3nccc(-c4ccnnc4)c3c2)cc1NS(=O)(=O)c1ccc(F)cc1F in this assay.
Solution: NO

Exercise: Returns: the outcome recorded for COc1c(OCCCN2CCOCC2)ccc2c1N=C(NC(=O)c1cnc(N)nc1)N1CCN=C21 in this assay.
Solution: NO

Exercise: So what was the verdict on CNC(=O)c1cccc2cc(Oc3ccnc4cc(OCC5(N)CC5)c(OC)cc34)ccc12 in this test?
Solution: NO

Exercise: Assay outcome for Nc1ncnc2c1c(-c1cccc(OCc3ccccc3)c1)cn2[C@H]1C[C@@H](CN2CCC2)C1 : what was it?
Solution: NO

Exercise: Assay result, entry C[C@@H](NC(=O)c1ncnc(N)c1Cl)c1ncc(C(=O)Nc2cc(C(F)(F)F)c(Cl)cn2)s1 — outcome?
Solution: NO

Exercise: Dear all, I need the recorded test outcome for CCS(=O)(=O)N1CCN(c2ccc(Nc3ncc(C(N)=O)c(NC4CC4)n3)cc2)CC1 [Cerdulatinib Hydrochloride] , thank you.
Solution: NO
